Values compiled from PubChem BioAssay (NCI).

Tested on: DU-145 prostate
experimental-protocol: NCI tumour cell line growth inhibition, 48 h
// values below are reported TGI
value-type: TGI

INSERT INTO assay_data (compound, value_type, test_value) VALUES
  ('NCCN1CC2CCC(CC2)C1', 'TGI', '> 10 µM'),
  ('C=C1CN(Cc2ccccc2)[C@@H]2CCCCC[C@H](C#N)[C@H]12', 'TGI', '> 100 µM'),
  ('O=[N+]([O-])c1ccc(Sc2c3ccccc3nc3ccccc23)nc1', 'TGI', '14.3 µM'),
  ('C=CCNC1=C2C[C@@H](C)C[C@@H](OC)[C@H](OC(=O)CN)[C@H](C)/C=C(\C)[C@@H](OC(N)=O)[C@H](OC)/C=C\C=C(/C)C(=O)NC(=CC1=O)C2=O', 'TGI', '> 40.9 µM'),
  ('O=C(CCN1CCOCC1)Nc1ccc2sc3ccccc3c(=O)c2n1', 'TGI', '> 100 µM'),
  ('COc1ccc(C(=O)/C=C/c2ccc(OCC(=O)N3CCN(c4ccccc4)CC3)cc2)cc1', 'TGI', '> 100 µM'),
  ('O=c1[nH]n(Cc2ccccn2)c2ccc([N+](=O)[O-])cc12', 'TGI', '> 100 µM'),
  ('N#CC(Cc1ccccc1Br)N(CCC1=CCCCC1)C(c1ccccc1)c1ccccc1 (centres undefined)', 'TGI', '> 100 µM'),
  ('Nc1nc(N)c2nc(CNc3ccc(C(=O)NC(CCCNC(=O)c4ccccc4C(=O)O)C(=O)O)cc3)cnc2n1 (centres undefined)', 'TGI', '> 100 µM');

###

System: OVCAR-4 ovarian
experimental-protocol: NCI tumour cell line growth inhibition, 48 h; in the data active = GI50 below about 0.43 µM; inactive = the rest
Labels: active, inactive

INSERT INTO assay_data (compound, category) VALUES
  ('N[C@@H]1CCCN(c2c(/C=C3\SC(=O)NC3=O)cccc2-c2ccccc2)C1', 'inactive'),
  ('COc1ccc(-c2cc(-c3cc(OC)c(OC)c(OC)c3)c(C#N)c(N3CCOCC3)n2)cc1O', 'inactive'),
  ('O=C1C(Cl)=C(Nc2cccc(O)c2)C(=O)N1c1ccccc1Cl', 'inactive'),
  ('CCOC(=O)c1cc2c(n1Cc1ccccc1)-c1oncc1CC2', 'inactive'),
  ('CCC(C(=O)[O-])C(=O)[O-].CCC(C(=O)[O-])C(=O)[O-].N.N.NCCCCCCN.[Pt+4].[Pt+4]', 'inactive'),
  ('CS(=O)(=O)CCNCc1ccc(-c2ccc3ncnc(Nc4ccc(OCc5ccccc5)c(Cl)c4)c3c2)o1', 'inactive'),
  ('O=C([O-])c1ccc(C(=O)[O-])cc1.O=C([O-])c1ccc(C(=O)[O-])cc1.[Mo+2].[Mo+2]', 'inactive'),
  ('COc1ccc(-c2c(-c3cc(OC)c4c(c3)OCO4)noc2N)cc1', 'active'),
  ('O=C1CCc2c(sc3[nH]c(=S)n(Cc4ccccc4)c(=O)c23)C1', 'inactive'),
  ('O=C(c1ccccc1)c1nc2ccc(C(F)(F)F)cc2[n+]([O-])c1C(F)(F)F', 'inactive'),
  ('O=C1/C(=C/c2ccccc2)CN(C(=O)OCc2ccccc2)C/C1=C\c1ccccc1', 'inactive'),
  ('C[C@H]1C(Oc2ccc(O)cc2)OC2OC3(C)CCC4[C@H](C)CCC1C24OO3 (stereo not given in full)', 'inactive'),
  ('O=C(O)C1(Cc2cccc(Nc3nccs3)n2)CCC(Oc2cccc(Cl)c2F)CC1 (stereo not given)', 'inactive'),
  ('CN(CCCl)c1ccc(/C=C/C2=[N+](C)c3ccccc3C2(C)C)cc1', 'inactive'),
  ('Cc1nc(N)sc1C(=O)Nc1cc(C(=O)NCCCN(C)C)n(C)c1', 'inactive');
